Test system: MDA-N
Assay: NCI tumour cell line growth inhibition, 48 h
Consider the following compounds; for each one, report its TGI.

The compound identified as N#Cc1c(Cl)/c(=C/O)c(=O)n2c1nc1ccccc12 registered its TGI at > 100 µM

Per the record, CCOC(=O)/C(C#N)=C1\c2c([nH]c(=S)[nH]c2=O)Oc2ccc3ccccc3c21 has TGI of > 100 µM

Kindly note the recorded TGI for C/C(=N/O)c1cccc(Nc2nc3ccc(Cl)cc3c3[nH]c4ccccc4c23)c1 , which is 4.05 µM

So, COC(=O)c1ccccc1/C=C1\Cc2cc(C)cc(C)c2C1=O ? Its TGI was > 100 µM

So, NC(CCP(=O)(O)CCC1C=CC=CC1)C(=O)O (stereo unspecified) ? Its TGI was > 100 µM

Entry COc1cc(C2=C(C#N)C(N)OC3=C2COc2ccccc23)cc(OC)c1OC (stereo unspecified) , TGI reported as > 100 µM

The compound listed as [O-][n+]1onc(-c2ccccc2)c1CN1CCOCC1 has a reported TGI of > 100 µM

Memo: Cc1cc2cc3c(C)cc(=O)oc3c(C)c2o1 , reported TGI: > 100 µM

// TGI value for CCCCCC(CO)C(O)(C(F)(F)F)C(F)(F)F (stereo unspecified) : > 10 µM

# compound COc1cc(Nc2cnc3cc(F)c(F)cc3n2)cc(OC)c1 ; its TGI = > 100 µM

Please fill in: TGI reported for CCCCCCCCC/C=C1\CC(CO)(COC(=O)C2CCCCC2)OC1=O (stereo unspecified) = 38.8 µM
